tested on: K-562 leukemia; test: NCI-60 one-dose screen, 48 h (100 = growth as untreated, 0 = no growth, -100 = all killed); conditions: 10 µM unless noted
This is part of a sample that, as a whole, favours compounds with a hit. Of some 83,000 tested, about 20% had one in any assay.
assay-endpoint: growth (%)
Report only the number, with the unit % understood.

Some solved entries appear below for comparison.
>>> measured_result("CCOC(=O)c1c[nH][nH]c1=O")
116
>>> measured_result("Cc1cc(C(=O)NN)c(C#N)c(=O)[nH]1")
116

Pending compound:
Problem: Query (compound): COC1OC(COC(C)=O)C(OC(C)=O)C(OC(C)=O)C1OC(C)=O (stereo not drawn) ; field requested: growth
Solution: 102

###

system: SK-MEL-2 melanoma; assay: NCI-60 one-dose screen, 48 h; conditions: 10 µM unless noted
Compounds without any hit were thinned out: in the full panel of roughly 83,000, 20% have a hit. Activity calls are given as the source filed them. Rule for the calls: active = growth percent below 10; inactive = the rest.
Entry note: the call must match one of 1 (yes) for active, 0 (no) for inactive

Worked set:
>>> qualitative_label("CCOC(=O)CSCCC#N")
"0 (no)"
>>> qualitative_label("CCCCCCCCCCCCCCCCOc1ccccc1NC(=O)CC(C)=O")
"0 (no)"
>>> qualitative_label("C=CCN1CCCC1=O")
"0 (no)"
>>> qualitative_label("Cn1c(=O)c2[nH]c(CC(=O)O)nc2n(C)c1=O")
"0 (no)"
>>> qualitative_label("CC(=O)C[n+]1ccc(C)cc1Sc1ccccc1C")
"0 (no)"

Now take the following compound into account.
Problem: Field: outcome | Entry: `Cc1cc(CC(=O)NCCO)n(CCO)c(=O)c1`
Solution: 0 (no)

###

tested on: RPMI-8226 leukemia; test: NCI-60 one-dose screen, 48 h; conditions: 10 µM unless noted
About 83,000 compounds went through this panel and 20% of them were active in at least one assay; those are over-represented in the sample as a whole. Activity calls are given as the source filed them. Rule for the calls: active = growth percent below 10; inactive = the rest.
Select the matching outcome among active, inactive

>>> qualitative_label("O=C1NC(=O)C(c2ccccc2)O1 (stereo not given)")
"inactive"
>>> qualitative_label("CC(=O)Nc1ccc(O)c(C)c1")
"inactive"
>>> qualitative_label("Oc1ccc2ccccc2c1CN1CCOCC1")
"inactive"
>>> qualitative_label("CCOC(=O)C1(N)CCCCC1")
"inactive"
>>> qualitative_label("C1Cc2onc(-c3noc4c3CCC4)c2C1")
"inactive"

Problem: Recorded test outcome, item `CCCCCCCCCCC(=O)CCCCCCCCCC`
Solution: inactive

Problem: Would you kindly repeat that for `COc1cccc(C(=O)NNC(=O)c2cccc3ccccc23)c1` ?
Solution: inactive

Problem: Thanks! And CC(C)(C)[Si](C)(C)OCC1OC(n2cnc3c(N)ncnc32)CC1OS(C)(=O)=O (stereo not given) ?
Solution: inactive

Problem: // next record `O=C(CCl)Oc1ccc([N+](=O)[O-])cc1`
Solution: inactive

Problem: Query `CN1CCN(C(=S)S)CC1` next
Solution: inactive

###

test system: OVCAR-4 ovarian; experiment: NCI-60 one-dose screen, 48 h (100 = growth as untreated, 0 = no growth, -100 = all killed); details: 10 µM unless noted
The panel holds about 83,000 compounds, 20% with a hit somewhere; the sample as a whole holds those more often. Activity calls are given as the source filed them. How the source made its calls: active means growth percent below 10; inactive means the rest.
assay-endpoint: growth

As a guide, the following entries are already answered.
>>> measured_result("C/C(O)=C(/C=N/C(=S)Nc1ccccc1)C(=O)Nc1ccccc1C")
"83% (inactive)"
>>> measured_result("Nc1c(Br)cc(O)c2c1C(=O)c1ccccc1C2=O")
"87.4% (inactive)"
>>> measured_result("O=C(O)c1c[nH]c2ccccc2c1=O")
"93.4% (inactive)"
>>> measured_result("O=C(O)Cc1ccc(Cl)cc1")
"107% (inactive)"
>>> measured_result("CCOC(=O)Nc1nccs1")
"109% (inactive)"
>>> measured_result("Nc1ncc([N+](=O)[O-])cn1")
"106% (inactive)"
>>> measured_result("S=C(NCc1ccccc1)N1CCC(CCCC2CCN(C(=S)NCc3ccccc3)CC2)CC1")
"76.9% (inactive)"
>>> measured_result("CS(=O)CC(=N\\O)/C(CS(C)=O)=N\\O (stereo not drawn)")
"103% (inactive)"

With those in mind, consider the next molecule.
Problem: // returns reported growth for input `Cc1ccccc1NC(=O)Oc1ccc(Cl)cc1C(=O)c1ccccc1`
Solution: 102% (inactive)
